Experiment: NCI Yeast Anticancer Drug Screen. Data for the cln2 rad14 strain (AID 165);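 further: 0% = growth equal to vehicle treated cultures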
Settings: S. cerevisiae cln2 rad14 strain, at 50.0 µM, hits give high values
Compounds without any hit were thinned out: in the full panel of roughly 79,000, 15% have a hit.
measuredAttribute: growth inhibition (%)
Use % as the unit, but write only the number.

For the compound "COc1ccc(OC)c(C(C)=O)c1" , what growth inhibition is on record? 1.75

Quick one: growth inhibition for C/C=C(\C)C(C#N)(CCCC)C(=O)OCC (configuration not stated) ? -14.7

Which growth inhibition is listed for "CCCCCCCCCC(=O)N/N=C/c1cccnc1" ? 26.2

Name the reported growth inhibition value associated with the compound "C=C(Nc1ccc(OC)cc1OC)C(=O)Cc1cccc[n+]1[O-]" -2.4

# input compound: "N#C/C(=C\c1ccccc1Cl)C(=O)c1ccccc1" ; wanted: its growth inhibition 9.9

Give the measured growth inhibition of "CC(C)c1ccc(/C=C2/CCCCC2=O)cc1" . -68.8

Sample "CCC(CC)=NNS(=O)(=O)c1cccc2ccccc12" — what was its growth inhibition? -15.7

Fill in the blank: the reported growth inhibition of COc1cccc(N2C(=O)C3c4[nH]c5ccc(C)cc5c4C4CCC(C(C)(C)C)CC4C3C2=O)c1 (configuration not stated) is ____. 2.55

Any idea what growth inhibition was measured for "Cc1nc2ccccc2nc1CC(=N)c1ccccc1" ? 5.1

Look up growth inhibition for this compound: COc1cccc(C2c3cc4c(cc3OC(Nc3ccccc3)C2C)OCO4)c1OC (configuration not stated) 3.35

Give its growth inhibition value. Item: "Cc1ccc(C(=O)c2ccccc2C(=O)O)cc1C(=O)O" 2.7

# query: growth inhibition of entry "O=C(CCCC(=O)NNC(=O)Nc1cccc(Cl)c1)NNC(=O)Nc1cccc(Cl)c1" -12.9
